# Test system: U-251
# measurement-description: NCI tumour cell line growth inhibition, 48 h
Active and inactive are the calls of the source. Rule as the data show it: active = GI50 up to about 1.1 µM and inactive = higher.
Possible outcomes: active, inactive

compound: Cc1ccccc1NC(=O)C(=O)Cc1cnc2ccccc2n1
label-class: inactive

compound: COC(=O)C(=O)C(C(=O)C=C(C)C)C(=O)C(=O)Nc1ccc(C)cc1C (stereo not given)
label-class: inactive

compound: CC(C)(C)/N=N/C(C)(C)N=C=O
label-class: inactive

compound: COc1cc2c(/C=C3/C(=O)Nc4ccc(O)cc43)c(Cl)n(Cc3ccccc3)c2cc1C
label-class: active

compound: CC(NNC(=O)c1ccc[n+]([BH2-]C#N)c1)c1ccccc1 (stereo not given)
label-class: inactive

compound: CCOC(OC1=C(C#N)CCC1)C(C)[Se]c1ccccc1 (stereo not given)
label-class: inactive

compound: COc1cc2c3c(n(C)c(=O)c2cc1OC)-c1cc2c(cc1/C3=C\CCCCCBr)OCO2
label-class: inactive

compound: O=C(Cn1c2ccc(Br)cc2c2nc3ccccc3nc21)NC1CCCCC1
label-class: inactive

compound: N#Cc1c(-c2ccc(Cl)cc2Cl)nc2[nH]nc(S)n2c1=O
label-class: inactive

compound: COC(=O)C1=C(C(=O)OC)C2(C)CCC(=O)C1O2 (stereo not given)
label-class: inactive

compound: COC(=O)C1=C(O)C(C(=O)OC)[C@@]2(O)[C@@H](C(=O)OC)C(c3ccc(OC(=O)/C(=C/c4ccc(Cl)cc4)c4ccc(Cl)cc4)cc3)C[C@@H]1[C@@H]2C(=O)OC (stereo not given in full)
label-class: inactive

compound: CCOC(=O)c1ccc(N(CCOS(=O)(=O)c2ccc(C)cc2)CCOS(=O)(=O)c2ccc(C)cc2)cc1
label-class: inactive

compound: Cc1[nH]c2ccccc2c1C1=CC(=O)N(c2ccccc2)C1=O
label-class: inactive

compound: Cc1cc2[nH]c(=NS(=O)(=O)c3cc(C)c(Cl)cc3S)[nH]c2cc1C
label-class: inactive

compound: CN(C)CCn1c(=O)nc2c3c(c([N+](=O)[O-])ccc31)Nc1ccc(O)cc1-2
label-class: inactive

compound: COc1cc(C2C(C(=O)Nc3ccc(Cl)c(Cl)c3)=C(C)NC(C)=C2C(=O)Nc2ccc(Cl)c(Cl)c2)ccc1O
label-class: inactive

compound: Cc1ccc(NC(=O)CSc2nc(O)nc3[nH]cnc23)cc1
label-class: inactive

compound: CC(=O)OCC1OC(OCCCCCCO)C(OC(C)=O)C(OC(C)=O)C1OC(C)=O (stereo not given)
label-class: inactive

compound: COc1cc(/C=C/C(=O)c2c([O-])on[n+]2-c2ccccc2)ccc1O
label-class: inactive

compound: Cc1ccccc1NC(=O)Cc1csc(N/N=C2\NC(=O)/C(=C/c3cccc([N+](=O)[O-])c3)S2)n1
label-class: inactive

###

Catalogue of GI50 values
# System: SF-268
# measurement-description: NCI tumour cell line growth inhibition, 48 h
Calls of active or inactive are those of the source. No stated cut-off is given here; in the data, active = GI50 up to about 1.1 µM and inactive = higher.
property: GI50

molecule: CC(C)=NNC(=S)NC12CC3CC(CC(C3)C1)C2
value-observed: > 100 µM (inactive)

molecule: C#C[C@@]1(O)CCCC2=CC3(CC[C@]21C)SCCS3
value-observed: > 100 µM (inactive)

molecule: Cc1ccc(S(=O)(=O)c2c(N)c3nc4ccccc4n3c3nc4ccccc4nc23)cc1
value-observed: > 100 µM (inactive)

molecule: COc1cc(/C=C/C(=O)C(C)(C)C)cc(OC)c1OC
value-observed: 33.9 µM (inactive)

molecule: N#Cc1c2c(c(N3CCOCC3)n3c1nc1ccccc13)CCCC2
value-observed: > 100 µM (inactive)

molecule: OCC1C2CCC3(OCCO3)C12 (stereo unspecified)
value-observed: > 100 µM (inactive)

molecule: N#Cc1c(-c2ccc(Cl)cc2Cl)nc2[nH]nc(S)n2c1=O
value-observed: > 100 µM (inactive)

molecule: Cc1cc2[nH]c(=NS(=O)(=O)c3cc(C)c(Cl)cc3S)[nH]c2cc1C
value-observed: 83.8 µM (inactive)

molecule: COC1=C(C)C(=O)C2=C(C1=O)C1C3CC4=C(C(=O)C(OC)=C(C)C4=O)C(CNC(=O)C(C)O)N3C(C#N)C(C2)N1C (stereo unspecified)
value-observed: < 0.01 µM (active)

molecule: CN(C)c1ccc(/C=N/NC(=O)c2cnc3ccccc3c2)cc1
value-observed: 18 µM (inactive)

molecule: COc1cc(OCc2ccc3nc(OC)c(OC)nc3c2)cc(OC)c1OC
value-observed: > 10 µM (inactive)
